Measured values drawn from ChEMBL document CHEMBL2062456 for this set.

- Tested on: Aspergillus clavatus
- ASSAY PROTOCOL: Antifungal activity against Aspergillus clavatus MTCC 1323
- Format: functional
Below is a list of entries, each paired with its recorded MIC99 value.

Study these solved cases before continuing.
COMPOUND	MIC99
COC1=CC(=O)C[C@@H](C)[C@]12Oc1c(Cl)c(OC)cc(OC)c1C2=O [GRISEOFULVIN]	100 µg/mL
O=C(/C=C/c1cn(-c2ccccc2)nc1-c1ccc(F)cc1)c1ccc(Br)cc1	> 100 µg/mL
Fc1ccc(-c2nn(-c3ccccc3)cc2C2=NNC(c3ccc(Cl)cc3)C2)cc1 (stereo unspecified)	50 µg/mL
Fc1ccc(-c2nn(-c3ccccc3)cc2C2=NNC(c3ccc(F)cc3)C2)cc1 (stereo unspecified)	50 µg/mL
Fc1ccc(-c2nn(-c3ccccc3)cc2C2=NNC(c3ccccc3)C2)cc1 (stereo unspecified)	50 µg/mL

Note down MIC99 recorded for "O=C(/C=C/c1cn(-c2ccccc2)nc1-c1ccc(F)cc1)c1ccccc1"
50 µg/mL

* * *

Reported log10(MIC99) values follow for various compounds
- System: Candida albicans
- ASSAY PROTOCOL: Antifungal activity against Candida albicans MTCC 227
- Type: functional
A difference of one corresponds to tenfold MIC99; all values are log10 with MIC99 in µg/mL.

COMPOUND	log10(MIC99)
O=C(/C=C/c1cn(-c2ccccc2)nc1-c1ccc(F)cc1)c1ccc(F)cc1	2.00
COC1=CC(=O)C[C@@H](C)[C@]12Oc1c(Cl)c(OC)cc(OC)c1C2=O [GRISEOFULVIN]	2.70
Fc1ccc(-c2nn(-c3ccccc3)cc2C2=NNC(c3ccccc3)C2)cc1 (stereo unspecified)	1.70
Fc1ccc(-c2nn(-c3ccccc3)cc2C2=NNC(c3ccc(Br)cc3)C2)cc1 (stereo unspecified)	1.00
O=C(/C=C/c1cn(-c2ccccc2)nc1-c1ccc(F)cc1)c1ccccc1	1.40

Note down log10(MIC99) recorded for "Cc1ccc(C(=O)/C=C/c2cn(-c3ccccc3)nc2-c2ccc(F)cc2)cc1"
1.70

Supply log10(MIC99) value. Item: Fc1ccc(-c2nn(-c3ccccc3)cc2C2=NNC(c3ccc(Cl)cc3)C2)cc1 (stereo unspecified)
2.00

Consider the compound Cc1ccc(C2CC(c3cn(-c4ccccc4)nc3-c3ccc(F)cc3)=NN2)cc1 (stereo unspecified) and give its recorded log10(MIC99).
1.40

Look up and state reported log10(MIC99) for "O=C(/C=C/c1cn(-c2ccccc2)nc1-c1ccc(F)cc1)c1ccc(Br)cc1"
1.00

Consider the compound "O=C(/C=C/c1cn(-c2ccccc2)nc1-c1ccc(F)cc1)c1ccc(Cl)cc1" . State its measured log10(MIC99).
2.00

Determine from records and report log10(MIC99) for Fc1ccc(-c2nn(-c3ccccc3)cc2C2=NNC(c3ccc(F)cc3)C2)cc1 (stereo unspecified)
1.30

* * *

- System: Escherichia coli
- ASSAY PROTOCOL: Antibacterial activity against Escherichia coli MTCC 443
- Format: functional
Reported MIC99 values for the following compounds.
Respond with the bare value in µg/mL.

COMPOUND	SYSTEM TESTED	SCALE UNIT	MIC99
O=C(/C=C/c1cn(-c2ccccc2)nc1-c1ccc(F)cc1)c1ccc(F)cc1	Escherichia coli	µg/mL	25

Please give measured MIC99 of the following entry: "CCn1cc(C(=O)O)c(=O)c2cc(F)c(N3CCNCC3)cc21"
10

Look up and state reported MIC99 for Fc1ccc(-c2nn(-c3ccccc3)cc2C2=NNC(c3ccccc3)C2)cc1 (centres undefined)
10

Assign MIC99 to the following record: Fc1ccc(-c2nn(-c3ccccc3)cc2C2=NNC(c3ccc(F)cc3)C2)cc1 (centres undefined)
20

Read off the recorded MIC99 for Cc1ccc(C2CC(c3cn(-c4ccccc4)nc3-c3ccc(F)cc3)=NN2)cc1 (centres undefined)
50

Determine its reported MIC99: "O=C(/C=C/c1cn(-c2ccccc2)nc1-c1ccc(F)cc1)c1ccc(Cl)cc1"
6.25

Name the recorded MIC99 of the item "O=C(/C=C/c1cn(-c2ccccc2)nc1-c1ccc(F)cc1)c1ccc(Br)cc1" in your answer.
20

Determine from records and report MIC99 for "Cc1ccc(C(=O)/C=C/c2cn(-c3ccccc3)nc2-c2ccc(F)cc2)cc1"
12.5

Provide one value: measured MIC99 of "O=C(/C=C/c1cn(-c2ccccc2)nc1-c1ccc(F)cc1)c1ccccc1"
20

Output measured MIC99 for this item: "O=C(N[C@H](CO)[C@H](O)c1ccc([N+](=O)[O-])cc1)C(Cl)Cl"
50

* * *

- Tested on: Aspergillus clavatus
- ASSAY PROTOCOL: Antifungal activity against Aspergillus clavatus MTCC 1323
- Format: functional
Here, each record is paired with measured MIC99 data.
Numbers only here, please. The scale is µg/mL.

Worked cases, answers included:
COMPOUND	MIC99, µg/mL
Cc1ccc(C(=O)/C=C/c2cn(-c3ccccc3)nc2-c2ccc(F)cc2)cc1	100
Cc1ccc(C2CC(c3cn(-c4ccccc4)nc3-c3ccc(F)cc3)=NN2)cc1 (stereo not given)	100
O=C(/C=C/c1cn(-c2ccccc2)nc1-c1ccc(F)cc1)c1ccc(F)cc1	20

Moving on to another compound below.
Give MIC99 for the following compound: Fc1ccc(-c2nn(-c3ccccc3)cc2C2=NNC(c3ccc(Br)cc3)C2)cc1 (stereo not given)
10

* * *

Reported MIC99 values for a set of molecules
- System: Escherichia coli
- ASSAY PROTOCOL: Antibacterial activity against Escherichia coli MTCC 443
- Format: functional
Please respond with the number in µg/mL and leave the unit unwritten.

Example molecules with recorded MIC99:
MOLECULE	SCALE UNIT	MIC99
Fc1ccc(-c2nn(-c3ccccc3)cc2C2=NNC(c3ccc(Cl)cc3)C2)cc1 (centres undefined)	µg/mL	25
O=C(O)c1cn(C2CC2)c2cc(N3CCNCC3)c(F)cc2c1=O	µg/mL	25
CC1(C)S[C@@H]2[C@H](NC(=O)[C@H](N)c3ccccc3)C(=O)N2[C@H]1C(=O)O	µg/mL	100

API: the following record is the query input.
Given the molecule Fc1ccc(-c2nn(-c3ccccc3)cc2C2=NNC(c3ccc(Br)cc3)C2)cc1 (centres undefined) , write its reported MIC99.
6.25
